assay: Dissociation constant, pKa of the compound; type: physicochemical
QUANTITY_MEASURED: pKa

{"MOLECULAR_STRING": "CC(=O)N1CCN([C@H]2CCN(C(=O)N(C)[C@H](C)c3cc(C(F)(F)F)cc(C(F)(F)F)c3)[C@@H](c3ccc(F)cc3C)C2)CC1", "OBSERVED_MEASUREMENT": 6.3}

* * *

assay: Half life in healthy human at 150 mg, po administered as single dose; type: ADME, organism-based; design: dosed compound name Casopitant; conditions: in vivo
QUANTITY_MEASURED: half-life

{"MOLECULAR_STRING": "CC(=O)N1CCN([C@H]2CCN(C(=O)N(C)[C@H](C)c3cc(C(F)(F)F)cc(C(F)(F)F)c3)[C@@H](c3ccc(F)cc3C)C2)CC1", "QUANTITY_MEASURED": "half-life", "OBSERVED_MEASUREMENT": "19.2 h"}

* * *

assay: Cmax in healthy human at 100 mg, po administered as single dose; assay type: ADME, organism-based; details: in vivo

{"MOLECULE": "CC(=O)N1CCN([C@H]2CCN(C(=O)N(C)[C@H](C)c3cc(C(F)(F)F)cc(C(F)(F)F)c3)[C@@H](c3ccc(F)cc3C)C2)CC1 [CASOPITANT]", "UNIT_ANNOTATION": "ng/mL", "Cmax": 457}

* * *

experiment: AUC (0 to t) in healthy human at 100 mg, po administered as single dose; type: ADME, organism-based; design: dosed compound name Casopitant; conditions: plasma

{"MOLECULAR_STRING": "CC(=O)N1CCN([C@H]2CCN(C(=O)N(C)[C@H](C)c3cc(C(F)(F)F)cc(C(F)(F)F)c3)[C@@H](c3ccc(F)cc3C)C2)CC1", "AUC(0-t), ng·h/mL": 2590}

* * *

assay: Cmax in healthy human at 100 mg, po administered as single dose on day 4 and cotreated with ketoconazole at 400 mg, po qd on day 1 to 7; format: ADME, organism-based; conditions: in vivo
QUANTITY_MEASURED: Cmax (ng/mL)

{"COMPOUND": "CC(=O)N1CCN([C@H]2CCN(C(=O)N(C)[C@H](C)c3cc(C(F)(F)F)cc(C(F)(F)F)c3)[C@@H](c3ccc(F)cc3C)C2)CC1 [CASOPITANT]", "QUANTITY_MEASURED": "Cmax", "OBSERVED_MEASUREMENT": 1250}

* * *

assay: Cmax in healthy human at 150 mg, po administered as single dose; format: ADME, organism-based; conditions: in vivo

{"MOLECULAR_STRING": "CC(=O)N1CCN([C@H]2CCN(C(=O)N(C)[C@H](C)c3cc(C(F)(F)F)cc(C(F)(F)F)c3)[C@@H](c3ccc(F)cc3C)C2)CC1", "Cmax, ng/mL": 847}

* * *

test system: Liver microsome; assay: Intrinsic clearance in human liver microsomes assessed per mg protein; assay type: ADME

{"MOLECULAR_STRING": "CC(=O)N1CCN([C@H]2CCN(C(=O)N(C)[C@H](C)c3cc(C(F)(F)F)cc(C(F)(F)F)c3)[C@@H](c3ccc(F)cc3C)C2)CC1", "CLint [µL/min/mg]": 25}

* * *

test: AUC (0 to t) in healthy human at 100 mg, po administered as single dose on day 4 and cotreated with ketoconazole at 400 mg, po qd on day 1 to 7; assay type: ADME, organism-based; set-up: dosed compound name Casopitant; conditions: plasma

{"MOLECULAR_STRING": "CC(=O)N1CCN([C@H]2CCN(C(=O)N(C)[C@H](C)c3cc(C(F)(F)F)cc(C(F)(F)F)c3)[C@@H](c3ccc(F)cc3C)C2)CC1", "AUC(0-t) (ng·h/mL)": 31200}
